In this section we review reported melting point values for a set of compounds.

| MOL | melting point |
| --- | --- |
| COc1ccc(-n2cnc(Cn3ccnc3C)c2)cc1Cl.Cl.Cl | 240 to 241 °C |
| CCc1nccn1Cc1cn(-c2ccc(C)c(F)c2)cn1.Cl.Cl | > 250 °C |
| Cc1nccn1Cc1cn(-c2cccc(OC(F)(F)F)c2)cn1.Cl.Cl | 221 to 223 °C |
| Cc1nccn1Cc1cn(-c2ccc3c(c2)OCO3)cn1.Cl.Cl | > 250 °C |
| CCc1nccn1Cc1cn(-c2ccc(OC)c(C(F)(F)F)c2)cn1.Cl.Cl | > 226 °C (dec.) |
| COc1cc(-n2cnc(Cn3ccnc3)c2)cc(C(F)(F)F)c1.Cl.Cl | 244 to 246 °C |
| COc1ccc(-n2cnc(Cn3ccnc3C)c2)cc1.Cl.Cl | > 250 °C |

###

Structures can show the parent of a compound that is named as a salt.
In this section we review reported melting point values for a set of compounds.

| COMPOUND | melting point |
| --- | --- |
| CCc1nccn1Cc1cn(-c2cccc(C(C)C)c2)cn1 (as salt: hydrochloride) | > 200 °C (dec.) |
| COc1cc(-n2cnc(Cn3ccnc3C)c2)ccc1F.Cl.Cl | > 220 °C (dec.) |
| Cc1nccn1Cc1cn(-c2cccc(SC(F)(F)F)c2)cn1.Cl.Cl | 169 to 170 °C |

###

Molecular target: NMDA-receptor subtype 2B (Rattus norvegicus, UniProt P35439+Q00960)
Construct: Membranes were prepared by homogenization of the whole brain minus cerebellum and medulla oblongata
Sequence (Q00960 27-1482, other chains not shown): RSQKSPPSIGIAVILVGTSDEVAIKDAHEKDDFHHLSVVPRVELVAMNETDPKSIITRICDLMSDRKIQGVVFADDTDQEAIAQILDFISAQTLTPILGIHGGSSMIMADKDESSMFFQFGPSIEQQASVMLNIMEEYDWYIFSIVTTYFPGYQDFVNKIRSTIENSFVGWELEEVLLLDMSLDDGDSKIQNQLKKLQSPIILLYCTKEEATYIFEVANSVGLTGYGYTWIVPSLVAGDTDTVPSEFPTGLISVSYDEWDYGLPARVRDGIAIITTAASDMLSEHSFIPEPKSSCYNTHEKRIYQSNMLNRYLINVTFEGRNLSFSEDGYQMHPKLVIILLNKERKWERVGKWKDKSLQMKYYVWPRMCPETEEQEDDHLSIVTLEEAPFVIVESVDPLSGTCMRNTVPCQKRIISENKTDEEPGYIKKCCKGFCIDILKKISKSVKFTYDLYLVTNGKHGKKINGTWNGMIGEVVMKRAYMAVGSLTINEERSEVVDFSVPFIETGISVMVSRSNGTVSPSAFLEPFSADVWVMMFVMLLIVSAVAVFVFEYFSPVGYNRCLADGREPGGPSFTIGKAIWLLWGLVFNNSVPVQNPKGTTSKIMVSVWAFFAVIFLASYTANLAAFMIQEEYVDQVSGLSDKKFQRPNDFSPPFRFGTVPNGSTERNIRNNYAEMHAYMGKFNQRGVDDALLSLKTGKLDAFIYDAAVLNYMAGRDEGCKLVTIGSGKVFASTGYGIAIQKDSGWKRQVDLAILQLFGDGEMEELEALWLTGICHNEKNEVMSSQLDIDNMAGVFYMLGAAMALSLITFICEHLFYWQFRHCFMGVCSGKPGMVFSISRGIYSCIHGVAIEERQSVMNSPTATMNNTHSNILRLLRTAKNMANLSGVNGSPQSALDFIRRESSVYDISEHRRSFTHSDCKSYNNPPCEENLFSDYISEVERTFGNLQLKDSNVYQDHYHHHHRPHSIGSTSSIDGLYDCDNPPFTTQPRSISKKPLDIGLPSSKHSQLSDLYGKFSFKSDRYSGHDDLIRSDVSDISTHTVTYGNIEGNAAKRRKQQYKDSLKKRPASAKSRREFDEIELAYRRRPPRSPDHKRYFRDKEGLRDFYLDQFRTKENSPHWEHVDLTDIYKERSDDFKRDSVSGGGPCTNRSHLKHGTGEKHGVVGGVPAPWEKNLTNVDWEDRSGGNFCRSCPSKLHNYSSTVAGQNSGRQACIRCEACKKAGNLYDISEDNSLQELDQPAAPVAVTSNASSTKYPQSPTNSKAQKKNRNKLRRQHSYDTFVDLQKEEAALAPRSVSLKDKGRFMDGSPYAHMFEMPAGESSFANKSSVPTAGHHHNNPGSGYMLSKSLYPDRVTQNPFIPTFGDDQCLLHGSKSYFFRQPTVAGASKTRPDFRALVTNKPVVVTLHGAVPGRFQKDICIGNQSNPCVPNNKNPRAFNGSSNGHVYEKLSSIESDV
Assay: 3H-Ro 25-6981 binding (displacement) on rat brain membranes
Settings: displacement of 5 nM 3H-Ro 25-6981, rat whole brain membranes (minus cerebellum and medulla oblongata), 2 hours at 4° C.
Protocol: ^3H[R-(R*,S*)]-(α-(4-Hydroxy-phenyl)-β-methyl-4-(phenyl-methyl)-1-piperidine propanol)binding Male Füllinsdorf albino rats weighing between 150-200 g were used. […] For displacement experiments 5 nM of ^3H-Ro 25-6981 were used and non specific binding was measured using 10 mM of tetrahydroisoquinoline and usually it accounts for 10% of the total. […] The effects of compounds were measured using a minimum of 8 concentrations and repeated at least once.
pIC50: −log10 of the molar value.

| MOL | pIC50 |
| --- | --- |
| Cc1nccn1Cc1cn(-c2ccc(Cl)c(Cl)c2)cn1.Cl.Cl | 8.00 |
| CCc1nccn1Cc1cn(-c2ccc(F)c(Br)c2)cn1.Cl.Cl | 7.85 |
| CCc1nccn1Cc1cn(-c2cccc(C(C)(F)F)c2)cn1.Cl.Cl | 8.10 |
| Cc1nccn1Cc1cncc(-c2ccc(F)c(C(F)F)c2)c1 | 8.00 |
| Cc1nccn1Cc1cn(-c2cccc(C3CC3)c2)cn1.Cl.Cl | 7.80 |
| Cc1nccn1Cc1cn(-c2ccc3c(c2)CCC3)cn1.Cl.Cl | 8.05 |
| Cl.Cl.Nc1nccn1Cc1cn(-c2ccc3c(c2)OCO3)cn1 | 8.00 |
| Cc1nccn1Cc1cn(-c2ccc(F)c(C(F)F)c2)cn1.Cl.Cl | 7.77 |
